Value source: ChEMBL document CHEMBL1201862

tested on: OVCAR-4; experiment: NCI tumour cell line growth inhibition, 48 h
Calls of active or inactive are those of the source. No stated cut-off is given here; in the data, active = GI50 up to about 1.1 µM and inactive = higher.
Experimental readout: GI50

CCOC(=O)/C(O)=C(/C(=O)OC)c1ccc(Cl)cc1
> 100 µM (inactive)
SC1=NC2(CCCCCC2)NN1c1ccccc1
2.16 µM (inactive)
Cc1cc(N(CCOS(C)(=O)=O)CCOS(C)(=O)=O)ccc1/C=N/c1ccc(-c2csc(-c3ccccc3)n2)c(Cl)c1
16 µM (inactive)
CCCC(=O)NC(Nc1ccc(S(=O)(=O)Nc2cc(C)on2)cc1)(C(=O)OCC)C(F)(F)F (stereo unspecified)
> 100 µM (inactive)
Cc1cc(O)nc(NNC(C#N)c2c(O)ccc3ccccc23)n1 (stereo unspecified)
3.32 µM (inactive)

# ---- query compound ----
Query :: Data request, read-out GI50, for CC(C)(C)OC(=O)N1C[C@H](CC(=O)OCc2ccccc2)C[C@H]1C(=O)OCC(Cl)(Cl)Cl
Result :: 3.95 µM (inactive)
